biological target: T1, human CD71 extracellular domain (human, UniProt P02786 89-760); test: primary ELISA; note: test concentration or dose not given here
T1 construct: also called hCD71; human CD71-ECD
T1 sequence (P02786 89-760): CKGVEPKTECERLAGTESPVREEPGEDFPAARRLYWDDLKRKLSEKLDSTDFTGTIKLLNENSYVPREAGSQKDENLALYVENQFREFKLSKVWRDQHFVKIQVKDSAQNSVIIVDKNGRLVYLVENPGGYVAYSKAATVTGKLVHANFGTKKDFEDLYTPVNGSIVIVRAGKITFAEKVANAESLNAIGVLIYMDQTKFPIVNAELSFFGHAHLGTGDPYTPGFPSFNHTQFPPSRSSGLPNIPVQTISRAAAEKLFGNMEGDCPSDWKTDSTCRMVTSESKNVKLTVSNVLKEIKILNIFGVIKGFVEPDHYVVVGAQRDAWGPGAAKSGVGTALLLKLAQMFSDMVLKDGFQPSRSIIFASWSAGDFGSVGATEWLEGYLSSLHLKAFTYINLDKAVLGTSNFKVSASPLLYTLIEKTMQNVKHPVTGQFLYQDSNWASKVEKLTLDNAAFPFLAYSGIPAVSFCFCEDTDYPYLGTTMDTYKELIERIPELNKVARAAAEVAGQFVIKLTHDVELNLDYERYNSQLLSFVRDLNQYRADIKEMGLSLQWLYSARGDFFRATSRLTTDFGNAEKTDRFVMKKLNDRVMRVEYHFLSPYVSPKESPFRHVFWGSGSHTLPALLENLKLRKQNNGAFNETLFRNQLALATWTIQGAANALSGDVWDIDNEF
quantity-kind: RLU (RLU)
Please reply with the bare figure in RLU and do not write the unit itself.

# annotated cases, reported RLU shown
CD71-binding FN3 domain of SEQ ID NO: 174 (designed binder) MSLPAPKNLVVSRVTEDSARLSWTAPNAAFDSFEIGYFENLYLGEAIVLTVPGSERSYDLTGLKPGTEYWVQIGGVKGGNWSAPLSAIFTT | 3.61e+06
CD71-binding FN3 domain of SEQ ID NO: 156 (designed binder) MSLPAPKNLVVSRVTEDSARLSWTAPDAAFDSFEIGYFEMSWTGEAIVLTVPGSERSYDLTGLKPGTEYVVFIGGVKGGNWSAPLSAIFTT | 3.68e+06
CD71-binding FN3 domain of SEQ ID NO: 172 (designed binder) MSRPAPKNLVVSRVTEDSARLSWTAPGAAFDSFEIAYFERTWFGEAIVLTVPSSERSYDLTGLKPGTEYWVQIGGVKGGDWSKPLSAIFTT | 4.34e+06
CD71-binding FN3 domain of SEQ ID NO: 153 (designed binder) MSLPAPKNLVVSRVTEDSARLSWTAPDAAFDSFYIAYAEPRPDGEAIVLAVPGSERSYDLTGLKPGTEYSVLIHGVKGGLLSSPLGADFTT | 4.57e+06
CD71-binding FN3 domain of SEQ ID NO: 163 (designed binder) MSLPAPKNLVVSRVTEDSARLSWTAPDAAFDSFFIGYLEPQPPGEVIHLYVPGSERSYDLTGLKPGTEYVVFIGGVKGGVWSVPLSAIFTT | 1.5e+06

response.value for CD71-binding FN3 domain of SEQ ID NO: 130 (designed binder) MSLPAPKNLVVSRVTEDSARLSWTAPDAAFDSFEIAYFERTWFGEAIVLTVPGSERSYDLTGLKPGTEYWVQIGGVKGGDWSAPLSAIFTT (field: RLU) = 3.76e+06

Origin of the recorded values: patent US20260151494A1
